biological target: T1, Wild Type Ub (human, UniProt P0CG48 1-76); experiment: ELISA on immobilized HECT domain
T1 construct: native (tag-free) WT ubiquitin was the analyte in BLI; also called wt Ub; WT ubiquitin

binder | binding result
EDD1 HECT domain (enzyme, human, UniProt O95071 2462-2799, looked up, domain: HECT domain; His- and Avi-tagged for selection and ELISA) LDLGLVDSSEKVQQENRKRHGSSRSVVDMDLDDTDDGDDNAPLFYQPGKRGFYTPRPGKNTEARLNCFRNIGRILGLCLLQNELCPITLNRHVIKVLLGRKVNWHDFAFFDPVMYESLRQLILASQSSDADAVFSAMDLAFAIDLCKEEGGGQVELIPNGVNIPVTPQNVYEYVRKYAEHRMLVVAEQPLHAMRKGLLDVLPKNSLEDLTAEDFRLLVNGCGEVNVQMLISFTSFNDESGENAEKLLQFKRWFWSIVEKMSMTERQDLVYFWTSSPSLPASEEGFQPMPSITIRPPDDQHLPTANTCISRLYVPLYSSKQILKQKLLLAIKTKNFGFV | no binding
HUWE1 HECT domain (enzyme, human, UniProt Q7Z6Z7 3993-4374, looked up, domain: HECT domain; His- and Avi-tagged for selection and ELISA) DFDVKRKYFRQELERLDEGLRKEDMAVHVRRDHVFEDSYRELHRKSPEEMKNRLYIVFEGEEGQDAGGLLREWYMIISREMFNPMYALFRTSPGDRVTYTINPSSHCNPNHLSYFKFVGRIVAKAVYDNRLLECYFTRSFYKHILGKSVRYTDMESEDYHFYQGLVYLLENDVSTLGYDLTFSTEVQEFGVCEVRDLKPNGANILVTEENKKEYVHLVCQMRMTGAIRKQLAAFLEGFYEIIPKRLISIFTEQELELLISGLPTIDIDDLKSNTEYHKYQSNSIQIQWFWRALRSFDQADRAKFLQFVTGTSKVPLQGFAALEGMNGIQKFQIHRDDRSTDRLPSAHTCFNQLDLPAYESFEKLRHMLLLAIQECSEGFGLA | no binding

The measurements presented in this section are drawn from patent US20200277346A1.
